The measured values listed here are drawn from patent US9119877B2.

# Tested on: Mcf-7 human breast adenocarcinoma cell line
# assay.protocol: cell proliferation (CellTiterGlo), single agents and combinations, Mcf-7
# Type: cell-based
# condition.summary: Homo sapiens, MCF7, 72 h, read-out: IC50 (μM) Compound of formula (I), Mcf-7, single agent, Table 2 (cisplatin experiment)
# Description: Materials and methods. […] Drugs were added to the experimental culture, and incubations were carried out at 37° C. for 72 hours in the dark. […] Drug solutions were prepared immediately before use. At the end of treatment, cell proliferation was determined by an intracellular adenosine triphosphate monitoring system (CellTiterGlo-Promega) using an Envision (PerkinElmer) reader. Inhibitory activity was evaluated comparing treated versus control data using the Assay Explorer (MDL) program. […]
measured.endpoint: IC50 (µM)
Number only, in µM; omit the unit.

Fill in IC50 for record NC(=O)c1cc(-c2ccnc(N)n2)[nH]c1-c1ccc(Cl)cc1Cl [Compound of formula (I)]
1.7
